For each entry below, report its T/C value.
Test system: CD2F1 mice, ip Colon 26 adenocarcinoma, median survival T/C
protocol details: NCI In Vivo Anticancer Drug Screen. Data for tumor model Colon 26 Adenocarcinoma (intraperitoneal) in CD2F1 (CDF1) mice
experimental setup: endpoint: median survival time; dose: 16.0 mg/kg/injection; schedule: Q01DX009 (ip); vehicle: acid diluted with saline; higher = longer survival
Toxic doses and inconclusive results are not listed.

- O=C1c2ccccc2C(=O)c2c(NCCCNCCO)ccc(NCCCNCCO)c21: 107 % of control
- O=C1c2ccccc2C(=O)c2c(NCCNCCNCCO)ccc(NCCNCCNCCO)c21: 97 % of control
- O=C1c2ccccc2C(=O)c2c(NCCNCCO)ccc(NCCNCCO)c21: 219 % of control
- O=C1c2ccccc2C(=O)c2c(NCCN3CCNCC3)ccc(NCCN3CCNCC3)c21: 114 % of control
- O=C1c2ccccc2C(=O)c2c(NCCNCCO)ccc(O)c21: 263 % of control
- CCCNCCNc1ccc(NCCNCCC)c2c1C(=O)c1ccccc1C2=O: 100 % of control

# map each compound to its T/C
1. NCCNc1ccc(NCCN)c2c1C(=O)c1ccccc1C2=O
2. CNCCNc1ccc(NCCNC)c2c1C(=O)c1ccccc1C2=O

Response given:
1. 227 % of control
2. 115 % of control

---

Test system: CD2F1 mice, ip Colon 26 adenocarcinoma, median survival T/C
protocol details: NCI In Vivo Anticancer Drug Screen. Data for tumor model Colon 26 Adenocarcinoma (intraperitoneal) in CD2F1 (CDF1) mice
experimental setup: endpoint: median survival time; dose: 16.0 mg/kg/injection; schedule: Q01DX009 (ip); vehicle: saline; higher = longer survival
Inconclusive results and toxic doses are left out.
For each entry below, report its T/C value.

- CN(C)CCCNc1cccc2c1C(=O)c1cccc(NCCCN(C)C)c1C2=O: 100 % of control
- CN(C)CCCNc1cccc2c1C(=O)c1c(NCCCN(C)C)cccc1C2=O: 95 % of control
- Cc1c(N)nc([C@H](CC(N)=O)NC[C@H](N)C(N)=O)nc1C(=O)N[C@H](C(=O)N[C@H](C)[C@@H](O)[C@H](C)C(=O)N[C@H](C(=O)NCCc1nc(-c2nc(C(=O)NCCC[S+](C)C)cs2)cs1)[C@@H](C)O)C(OC1OC(CO)C(O)C(O)C1OC1OC(CO)C(O)C(OC(N)=O)C1O)c1cnc[nH]1 (stereo not given in full): 111 % of control
- O=C1c2ccccc2C(=O)c2c(NCCNCCO)ccc(NCCNCCO)c21: 305 % of control

Lab note: next compound to report on.
Challenge: Item: CN(C)CCCNc1ccc(NCCCN(C)C)c2c1C(=O)c1ccccc1C2=O Test system: CD2F1 mice, ip Colon 26 adenocarcinoma, median survival T/C Read-out: T/C Value: ?
Response given: 100 % of control

---

Tested on: CD2F1 mice, ip Colon 26 adenocarcinoma, median survival T/C
protocol details: NCI In Vivo Anticancer Drug Screen. Data for tumor model Colon 26 Adenocarcinoma (intraperitoneal) in CD2F1 (CDF1) mice
experimental setup: endpoint: median survival time; dose: 50.0 mg/kg/injection; schedule: Q04DX003 (ip); vehicle: saline with Tween-80
Inconclusive results and toxic doses are left out. Rule for the calls: active = survival T/C of 150% or more; inactive = T/C below 125% in these data.
Select the matching outcome among T (active), F (inactive)

* CCSC(=O)N1c2ccc(OC)cc2C=CC1C#N (configuration not stated) | F
* OC(CBr)C(O)C(O)C(O)CBr (configuration not stated) | F
* CC(=O)Nc1ccc(O)c(O)c1 | F
* COc1cc(C)c2c(c1C=O)Oc1c(c(C)c(O)c3c1C(O)OC3=O)OC2=O (configuration not stated) | F
* CO[C@H]1C[C@@H]2CC[C@@H](C)[C@@](O)(O2)C(=O)C(=O)N2CCCC[C@H]2C(=O)O[C@H]([C@H](C)C[C@@H]2CC[C@@H](O)[C@H](OC)C2)CC(=O)[C@H](C)C=C(C)[C@@H](O)[C@@H](OC)C(=O)[C@H](C)C[C@H](C)/C=C/C=C/C=C1C | F

Challenge: How was Cc1ncc([N+](=O)[O-])n1CCSC(N)=O classified in this test?
Response given: F

Challenge: How was COc1ccc2cc1Oc1ccc(cc1)C[C@H]1c3cc(c(OC)cc3CCN1C)Oc1c(OC)c(OC)cc3c1[C@H](C2)N(C)CC3 classified in this test?
Response given: F
